Recorded viability values for a group of compounds are listed next.
Assay: SK-BR-3 cell growth inhibitors, pilot screen, 24 h, human (AID 572);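 also: compound exposure lasted between 18 and 24 h rather than exactly 24 h; 100% = carrier-treated control wells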
Conditions: SK-BR-3 viability, CellTiter-Glo luminescence, at 10 µM, hits give low values
Measure: viability (%)

CCn1c(=O)cc(OCC(=O)NCCCN2CC(C)CC(C)C2)c2ccccc21 (stereo unspecified) | 101
COc1ccc2[nH]c(=O)c(CN(C(=O)c3cccnc3)c3ccccc3OC)cc2c1 | 104
Nc1nonc1-c1noc(CCCCCN2C(=O)c3ccccc3C2=O)n1 | 102
Cc1cc2c(c(=O)o1)C(Cc1ccccc1)C(C#N)=C(N)O2 (stereo unspecified) | 94
COc1ccc(C(=O)N2CCSC2=S)cc1OC | 97.5
CSc1ccc(-c2nc(CSCC(=O)N3CCOCC3)c(C)o2)cc1 | 102
